procedure-summary: Single-dose pharmacokinetics in monkeys (p.o. and i.v.)
Format: in vivo, monkey
condition-info: monkey, plasma, iv, 0.5 mg/kg; monkeys, 0,5 mg/kg i.v.; read-out: AUC
assay-metric: AUC (ng·h/mL)
Give the value in ng·h/mL but do not write ng·h/mL after it.

Which AUC value belongs to CC#C[C@@H](CC(=O)O)c1ccc(OCC(C)=C(C)C)cc1 ?
1370

###

procedure-summary: Repeat-dose study in healthy Wistar Han rats, safety (14 and 56 days)
Format: in vivo, rat
condition-info: both sexes, Wistar Han, rat, in vivo, oral; rats, 14-day study; read-out: maximum tolerated dose (MTD)
assay-metric: MTD at 14 days (mg/kg)
Kindly answer with a numeric value in mg/kg, unit omitted.

Reported MTD at 14 days, molecule CC#C[C@@H](CC(=O)O)c1ccc(OCC(C)=C(C)C)cc1 [CPL207280] : ____
600
